# Species on record: Rattus norvegicus
# assay-notes: DrugMatrix - Regimen: Daily Repeat
# Type: toxicity, organism-based, Sprague-Dawley
# Parameters: regimen Daily Repeat, gender Male, age 6-8 weeks
# condition: in vivo, po, 0 mg/kg, 120 h, tissue Plasma, route oral GAVAGE, dose level Control, time 5 day, vehicle 100 % WATER
result-type: GLUCOSE
Express your answer as a number followed by its unit.

Query block: Note down GLUCOSE recorded for ClC(Cl)Cl [CHLOROFORM]
Result block: 139.33 mg/dL

Query block: Note down GLUCOSE recorded for CC(C)C[C@H](NC(=O)[C@@H](O)[C@H](N)Cc1ccccc1)C(=O)O [UBENIMEX]
Result block: 161.83 mg/dL

Query block: Note down GLUCOSE recorded for C[C@@H]1C[C@@H]([C@H](O)CC2CC(=O)NC(=O)C2)C(=O)[C@@H](C)C1 [CYCLOHEXIMIDE]
Result block: 173.5 mg/dL

Query block: Note down GLUCOSE recorded for C[N+](C)(C)CCO.[Cl-] [CHOLINE CHLORIDE]
Result block: 156.5 mg/dL

Query block: Note down GLUCOSE recorded for COC(=O)C1=C(C)NC(C)=C(C(=O)OCC(C)C)C1c1ccccc1[N+](=O)[O-] (centres undefined) [NISOLDIPINE]
Result block: 153.67 mg/dL

Query block: Note down GLUCOSE recorded for CC(C)(C)c1ccc(C(=O)CCCN2CCC(OC(c3ccccc3)c3ccccc3)CC2)cc1 [EBASTINE]
Result block: 145.67 mg/dL

Query block: Note down GLUCOSE recorded for Cc1ncc([N+](=O)[O-])n1CCO [METRONIDAZOLE]
Result block: 139.33 mg/dL

Query block: Note down GLUCOSE recorded for CC(C)NCC(O)COc1cccc2ccccc12 (centres undefined) [PROPRANOLOL]
Result block: 161.67 mg/dL

Query block: Note down GLUCOSE recorded for Nc1ccn([C@@H]2CS[C@H](CO)O2)c(=O)n1 [LAMIVUDINE]
Result block: 135.67 mg/dL

###

# Organism: Rattus norvegicus
# assay-notes: DrugMatrix - Regimen: Daily Repeat
# Format: toxicity, organism-based, Sprague-Dawley
# Design: regimen Daily Repeat, gender Male, age 6-8 weeks
# condition: in vivo, po, 0 mg/kg, 72 h, tissue Blood, route oral GAVAGE, dose level Control, time 3 day, […]
Please provide measured MEAN CORPUSCULAR VOLUME for the entries that follow.
// units = fL; emit number, no label

Query block: Note down MEAN CORPUSCULAR VOLUME recorded for COc1ccc2[nH]c([S+]([O-])Cc3ncc(C)c(OC)c3C)nc2c1 (stereo not given) [OMEPRAZOLE]
Result block: 62.9

Query block: Note down MEAN CORPUSCULAR VOLUME recorded for CC/C(=C(/CC)c1ccc(O)cc1)c1ccc(O)cc1 [DIETHYLSTILBESTROL]
Result block: 63.58

Query block: Note down MEAN CORPUSCULAR VOLUME recorded for CC(=O)Nc1cccc(O)c1 [METACETAMOL]
Result block: 61.23

Query block: Note down MEAN CORPUSCULAR VOLUME recorded for C[C@H]1O[C@@H](O[C@H]2[C@@H](O)C[C@H](O[C@H]3[C@@H](O)C[C@H](O[C@H]4CC[C@@]5(C)[C@H](CC[C@@H]6[C@@H]5CC[C@]5(C)[C@@H](C7=CC(=O)OC7)CC[C@]65O)C4)O[C@@H]3C)O[C@@H]2C)C[C@H](O)[C@@H]1O [DIGITOXIN]
Result block: 62.38

Query block: Note down MEAN CORPUSCULAR VOLUME recorded for COCCOC(=O)C1=C(C)NC(C)=C(C(=O)OC(C)C)C1c1cccc([N+](=O)[O-])c1 (stereo not given) [NIMODIPINE]
Result block: 62.75

###

# Species on record: Rattus norvegicus
# assay-notes: DrugMatrix - Regimen: Daily Repeat
# Format: toxicity, organism-based, Sprague-Dawley
# Set-up: regimen Daily Repeat, gender Male, age 6-8 weeks
# condition: in vivo, po, 10 mg/kg, 72 h, tissue Plasma, route oral GAVAGE, dose level Low, time 3 day, […]
result-type: TOTAL PROTEIN (G/DL)
// units = G/DL; emit number, no label

Query block: Note down TOTAL PROTEIN recorded for COCCOC(=O)C1=C(C)NC(C)=C(C(=O)OC(C)C)C1c1cccc([N+](=O)[O-])c1 (centres undefined) [NIMODIPINE]
Result block: 5.57

Query block: Note down TOTAL PROTEIN recorded for CC(C)CC(N(C)C)C1(c2ccc(Cl)cc2)CCC1 (centres undefined) [SIBUTRAMINE]
Result block: 5.37

Query block: Note down TOTAL PROTEIN recorded for COc1ccc2cc([C@H](C)C(=O)O)ccc2c1 [NAPROXEN]
Result block: 5.87

Query block: Note down TOTAL PROTEIN recorded for CCOC(=O)C1=C(C)NC(C)=C(C(=O)OC)C1c1cccc([N+](=O)[O-])c1 (centres undefined) [NITRENDIPINE]
Result block: 5.6

###

# Species on record: Rattus norvegicus
# assay-notes: DrugMatrix - Regimen: Daily Repeat
# Format: toxicity, organism-based, Sprague-Dawley
# Parameters: regimen Daily Repeat, gender Male, age 6-8 weeks
# condition: in vivo, po, 0 mg/kg, 120 h, tissue Plasma, route oral GAVAGE, dose level Control, time 5 day, vehicle .5 % CMC
result-type: LACTATE DEHYDROGENASE
Express your answer as a number followed by its unit.

Query block: Note down LACTATE DEHYDROGENASE recorded for CC(=O)CC(c1ccccc1)c1c(O)c2ccccc2oc1=O (stereo not drawn)
Result block: 259.67 u/L

Query block: Note down LACTATE DEHYDROGENASE recorded for CN1C(=O)COc2c(C(=O)NC3CN4CCC3CC4)cc(Cl)cc21 (stereo not drawn)
Result block: 322 u/L

Query block: Note down LACTATE DEHYDROGENASE recorded for C#C[C@]1(O)CC[C@H]2[C@@H]3CCc4cc(OC)ccc4[C@H]3CC[C@@]21C
Result block: 153.67 u/L

###

# Species on record: Rattus norvegicus
# assay-notes: DrugMatrix - Regimen: Daily Repeat
# Assay type: toxicity, organism-based, Sprague-Dawley
# Set-up: regimen Daily Repeat, gender Male, age 6-8 weeks
# condition: in vivo, po, 0 mg/kg, 72 h, tissue Plasma, route oral GAVAGE, dose level Control, time 3 day, vehicle 100 % WATER
Please provide measured TOTAL BILIRUBIN for the entries that follow.
// units = mg/dL; emit number, no label

Query block: Note down TOTAL BILIRUBIN recorded for CC(C)NCC(O)COc1cccc2ccccc12 (stereo not given)
Result block: 0.13

Query block: Note down TOTAL BILIRUBIN recorded for Cc1ncc([N+](=O)[O-])n1CCO
Result block: 0.15

Query block: Note down TOTAL BILIRUBIN recorded for Nc1ccn([C@@H]2CS[C@H](CO)O2)c(=O)n1
Result block: 0.2

Query block: Note down TOTAL BILIRUBIN recorded for CC(C)(C)c1ccc(C(=O)CCCN2CCC(OC(c3ccccc3)c3ccccc3)CC2)cc1
Result block: 0.22

Query block: Note down TOTAL BILIRUBIN recorded for COC(=O)C1=C(C)NC(C)=C(C(=O)OCC(C)C)C1c1ccccc1[N+](=O)[O-] (stereo not given)
Result block: 0.18

###

Please provide measured ASPARTATE AMINOTRANSFERASE for the entries that follow.
# Organism: Rattus norvegicus
# assay-notes: DrugMatrix - Regimen: Daily Repeat
# Type: toxicity, organism-based, Sprague-Dawley
# Set-up: regimen Daily Repeat, gender Male, age 6-8 weeks
# condition: in vivo, po, 1500 mg/kg, 72 h, tissue Plasma, route oral GAVAGE, dose level High, time 3 day, vehicle .5 % CMC
// units = u/L; emit number, no label

Query block: Note down ASPARTATE AMINOTRANSFERASE recorded for CO[C@H]1/C=C/O[C@@]2(C)Oc3c(C)c(O)c4c(c3C2=O)C2=NC3(CCN(CC(C)C)CC3)NC2=C(NC(=O)/C(C)=C\C=C\[C@H](C)[C@H](O)[C@@H](C)[C@@H](O)[C@@H](C)[C@H](OC(C)=O)[C@@H]1C)C4=O
Result block: 113.67

Query block: Note down ASPARTATE AMINOTRANSFERASE recorded for Cc1ccc(S(=O)(=O)NC(=O)NN2CC3CCCC3C2)cc1 (stereo not drawn) [GLICLAZIDE]
Result block: 85.67

Query block: Note down ASPARTATE AMINOTRANSFERASE recorded for C[C@]1(Cn2ccnn2)[C@H](C(=O)O)N2C(=O)C[C@H]2S1(=O)=O
Result block: 89

###

# Species on record: Rattus norvegicus
# assay-notes: DrugMatrix - Regimen: Daily Repeat
# Type: toxicity, organism-based, Sprague-Dawley
# Design: regimen Daily Repeat, gender Male, age 6-8 weeks
# condition: in vivo, ip, 0 mg/kg, […], tissue Blood, route intraperitoneal, dose level Control, time 14 day, vehicle 100 % SALINE
result-type: ABSOLUTE SEGMENTED NEUTROPHIL (cells/µL)
// units = cells/µL; emit number, no label

Query block: Note down ABSOLUTE SEGMENTED NEUTROPHIL recorded for CADMIUM DICHLORIDE
Result block: 2330

Source listed as ChEMBL document CHEMBL3885881.
